# experiment.notes: Standard protocol for determination of kcat and KM (continuous spectrophotometric assay, Acetyl CoA hydrolysis at 235 nm)
# Assay type: biochemical
# study.conditions: purified protein; about 23° C.; pH 6.8; 0.2 mM acetyl CoA; glyphosate 0.125 to 10 mM
In this section, each of the molecules is paired with its reported Km.
# unit: µM | format: bare number

Look over these answered cases.
- molecule: "SEQ ID NO: 281: GAT polypeptide (protein, 10_6D11, GAT polypeptide) MIEVKPINAEDTYEIRHRILRPNQPLEACKYETDLLGGTLHLGGYYRGKLVSIASFHQAEHPELEGQKQYQLRGMATLEGYREQKAGSTLIRHAEELLRKKGADLLWCNARTSASGYYKKLGFSEQGEVYDIPPVGPHILMYKKLT"
  Km / µM: 1200
- molecule: "SEQ ID NO: 437: GAT polypeptide (protein, 9H11, GAT polypeptide) MIEVKPINAEDTYEIRHRILRPNQPLEACKYETDLLGGTFHLGGYYRGKLISIASFHKAEHSELEGEEQYQLRGMATLEGYREQKAGSTLIRHAEELLRKKGADLLWCNARTSVSGYYKKLGFSEQGEVYDIPPIGPHILMYKKLT"
  Km / µM: 2300
- molecule: "SEQ ID NO: 387: GAT polypeptide (protein, X: residue not identified in the source; ends and bridges not checked, GAT polypeptide) MIEVKPINAEDTYEIRXRILRPNQPLEACMYETDLLGGTFHLGGYYRGKLISIASFHQAEHPELEGQKQYQLRGMATLEGYREQKAGSTLIRHAEELLRKKGADLLWCNARTSASGYYKKLGFSEQGGVYDIPPVGPHILMYKKLT"
  Km / µM: 1200
- molecule: "SEQ ID NO: 436: GAT polypeptide (protein, 9C6, GAT polypeptide) MIEVKPINAEDTYEIRHRILRPNQPLEACMYETDLLGGTFHLGGYYQGKLISIASFHNAEHSELEGQKQYQLRGMATLEGYREQKAGSTLIRHAEELLRKKGADLLWCNARTSVSGYYEKLGFSEQGEVYDIPPVGPHILMYKKLA"
  Km / µM: 2500
- molecule: "SEQ ID NO: 363: GAT polypeptide (protein, 3C_12H10, GAT polypeptide) MIEVKPINAEDTYEIRHRILRPNQPLEACMYETDLLGGTFHLGGYYRGKLISIASFHQAEHSELEGQKQYQLRGMATLEGYRGQKAGSTLIRHAEELLRKKGADLLWCNARTSASGYYEKLGFSEQGEVYDIPPIGPHILMYKKLT"
  Km / µM: 1200

Can you share its Km? I mean this molecule: SEQ ID NO: 470: GAT polypeptide (protein, 1_2B6, GAT polypeptide) MIEVKPINAEETYELRHKILRPNQPLEACMYETDLLRGSFHLGGFYRGKLISIASFHQAEHSELEGQKQYQLRGMATLEGFRDQKAGSSLIKHAEEILRKRGADLLWCNARTSASGYYKKLGFSEQGEIFETPPVGPHILMYKRLT
580

Another: SEQ ID NO: 336: GAT polypeptide (protein, 15_4H3, GAT polypeptide) MIEVKPINAEDTYEIRHRILRPNQPLEACKYETDLLGGTFHLGGYYRGKLVSIASFHQAEHPELEGQKQYQLRGMATLEEYREQKAGSTLIRHAEELLRKKGADLLWCNARTSASGYYKKLGFSEQGEVYDIPPTGPHILMYKKLT
1000

Another: SEQ ID NO: 339: GAT polypeptide (protein, 15_9F6, GAT polypeptide) MIEVKPINAEDTYEIRHRILRPNQPLEACKYETDLLGGTFHLGGYYRGKLISIASFHQAEHPELEGQKQYQLRGMATLEEYREQKAGSTLIRHAEELLRRKGADLLWCNARTSASGYYKKLGFSEQGEVYDIPPVGPHILMYKKLT
1100

Another: SEQ ID NO: 311: GAT polypeptide (protein, 14_12H6, GAT polypeptide) MIEVKPINAEDTYEIRHRILRPNQPLEACKYETDLLGGAFHLGGYYRGKLISIASFHQAEHPELEGQKQYQLRGMATLEEYREQKAGSTLIRHAEELLRKKGADLLWCNARTSASGYYKKLGFSEQGEVYDIPPTGPHILMYKKLT
900

// data source = patent US8008547B2
